Would you kindly list EC50 hNPY2R 100% hP (CreLuc) for each of these binders?
- TARGET DESC: T1, human neuropeptide Y2 receptor (human, UniProt P49146 1-381)
- T1 sequence (looked up): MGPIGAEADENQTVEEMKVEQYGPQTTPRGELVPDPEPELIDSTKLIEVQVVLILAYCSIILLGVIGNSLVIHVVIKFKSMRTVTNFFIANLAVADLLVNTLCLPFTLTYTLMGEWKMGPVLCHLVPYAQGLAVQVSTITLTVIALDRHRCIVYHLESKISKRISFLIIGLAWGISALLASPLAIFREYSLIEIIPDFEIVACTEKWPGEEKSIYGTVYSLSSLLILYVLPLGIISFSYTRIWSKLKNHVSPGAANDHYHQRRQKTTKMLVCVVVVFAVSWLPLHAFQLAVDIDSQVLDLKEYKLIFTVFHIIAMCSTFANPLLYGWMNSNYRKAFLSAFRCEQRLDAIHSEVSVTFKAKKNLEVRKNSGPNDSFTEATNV
- ASSAY COMMENT: cell-based or functional assay
Starred links: 1 amine or outer side, 2 acyl side, 3 side chain; linkers in the order of their positions; H or OH if unused. Non-standard residues stand in square brackets, D forms with d. Groups on a side chain read outwards from the residue. No end group written: not given here. *: point of attachment. C18 diacid = O=C(O)CCCCCCCCCCCCCCCCC(=O)*; γGlu = O=C(O)[C@H](CCC(=O)[*:2])N[*:1]; Aib = CC(C)(N)C(=O)O; Ahx = NCCCCCC(=O)O
The answer should read as a number with its unit following.

INSERT INTO results (binder, result) VALUES
  ('Y[Aib]EGTFTSDYSI[Aib]LEKQAQ[Aib]EFVEWLIK([Ahx-γGlu-γGlu-γGlu-γGlu-γGlu-γGlu-C18 diacid])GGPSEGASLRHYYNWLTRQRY-NH2 (also: TFA salt) [Compound 279]', '103 nM');

Now look at this one.
# get_value(readout='EC50 hNPY2R 100% hP (CreLuc)', item= Y[Aib]EGTFTSDYSI[Aib]LEKQAQ[Aib]AFVEWLIK([γGlu-γGlu-γGlu-γGlu-C18 diacid])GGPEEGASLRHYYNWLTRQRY-NH2 (also: TFA salt) [Compound 272] )
113 nM

The values you see were collected from patent US20240247080A1.
